ASSAY METHOD TEXT: Cytotoxicity against mouse NSO cells by MTT assay
Format: cell-based
MEASUREMENT CONDITIONS: read-out: TC50 (the source's name)
PROPERTY NAME: CC50 (µM)
Reply numerically in µM, unit not repeated.

Please review the entries below; each comes with its answer.
>>> value_observed("Clc1ccc(C(Nc2ccnc3cc(Cl)ccc23)c2ccc(CN3CCCC3)cc2)cc1 (racemic)")
8.6
>>> value_observed("CCN(CC)CCCC(C)Nc1ccnc2cc(Cl)ccc12 (stereo not given) [CHLOROQUINE]")
14.9

Query :: # input compound: COc1ccc2nc3cc(Cl)ccc3c(NC(c3ccc(Cl)cc3)c3ccc(CN4CCCC4)cc3)c2c1 (racemic) ; wanted: its CC50
Result :: 11.1

Query :: I have this compound here, FC(F)(F)c1ccc2c(NC(c3ccc(Cl)cc3)c3ccc(CN4CCCC4)cc3)ccnc2c1 (racemic) , and I need its recorded CC50.
Result :: 12.1

Query :: Quick one: CC50 of Clc1cccc(C(Nc2ccnc3cc(Cl)ccc23)c2ccc(CN3CCCC3)cc2)c1 (racemic) ?
Result :: 23.8
